meta.source: paper PMC12452389

system: Candida glabrata ATCC 66032; experiment: MIC broth microdilution; format: cell-based; conditions: Nakaseomyces glabratus, ATCC66032, C. glabrata; value in parentheses; read-out: MIC
Recorded measurements of log10 of MIC, one per entry
// stored as log10 of MIC expressed in µM

Guide cases for log10 of MIC, answers given:
Molecule: CCCCCCCCCCCCNC(=O)C(N)Cc1ccccc1 (stereo not drawn)
Target system: Candida glabrata ATCC 66032
Measured parameter: log10 of MIC
Value observed: 1.94

Molecule: CCCCCCCCCCCCCCNC(=O)C(CCCNC(=N)N)NC(=O)C(N)Cc1c[nH]c2ccccc12 (stereo not drawn)
Target system: Candida glabrata ATCC 66032
Measured parameter: log10 of MIC
Value observed: 1.15

Molecule: CCCCCCCCCCNC(=O)C(CCCNC(=N)N)NC(=O)C(N)Cc1ccccc1 (stereo not drawn)
Target system: Candida glabrata ATCC 66032
Measured parameter: log10 of MIC
Value observed: 2.08

Molecule: CCCCCCCCNC(=O)C(CCCNC(=N)N)NC(=O)C(N)Cc1ccccc1 (stereo not drawn)
Target system: Candida glabrata ATCC 66032
Measured parameter: log10 of MIC
Value observed: 2.71

In one line, give reported log10 of MIC of the entry CCCCCCCCCCCCNC(=O)C(CCCNC(=N)N)NC(=O)C(N)Cc1c[nH]c2ccccc12 (stereo not drawn) .
2.03

In one line, give reported log10 of MIC of the entry CCCCCCCCCCCC(=O)NC(CCCNC(=N)N)C(=O)OC (stereo not drawn) [C12AM] .
1.59
